# ASSAY_INFO: qHTS assay to identify small molecule antagonists of the estrogen related receptor signaling pathway with the pleiotropic PPARgamma coactivator (PGC) from Tox21 10K library - cell viability counter screen (AID 1224840); note: nearly all actives have a fitted effect of over 40% in size
# ASSAY_CONDITIONS: PGC/ERR reporter cells viability, CellTiter-Fluor, 17.5 h; series mostly up to 92.4 µM
# Protocol: National Center for Advancing Translational Sciences [NCATS] NIH Chemical Genomics Center [NCGC] U.S. Environmental Protection Agency [EPA] National Institutes of Environmental Health Sciences [NIEHS] National Toxicology Program [NTP] […] The PGC/ERR cells were dispensed at 2,000 cells/5 ul/well in 1536-well white plates using a Multidrop dispenser. […] After 30-minute incubation at 37 C/5% CO2, the fluorescence intensity in the plates was measured using a ViewLux plate reader.
Records with an inconclusive call do not appear. Activity calls are given as the source filed them. Calls come from the whole dose curve; as a rule, active = well fitted cell-killing curve with a large enough effect in the repeat runs (not every such curve was filed as active); inconclusive = weak or mixed curves, or effect the other way; inactive = no such curve, though single readings can be large or run the other way.
PROPERTY_LABEL: viability change, negative = cytotoxic

// below: answered compounds
compound=Clc1cc(Cl)c2c(c1)N=C1CCCCCN1C2 value_observed=inactive
compound=Cc1ccccc1CCO value_observed=inactive
compound=CC(C)Oc1ccccc1O value_observed=inactive
compound="CCc1c(C)[nH]c2c1C(=O)C(CN1CCOCC1)CC2 (stereo not given)" value_observed=inactive

IN: # lookup: viability change, negative = cytotoxic of Clc1nc2ccccc2nc1Cl
OUT: inactive

IN: Any idea what its viability change, negative = cytotoxic is? The compound is CS(C)=O
OUT: inactive

IN: Suppose we examine the compound C1=COCCC1 ; what viability change, negative = cytotoxic value has been reported?
OUT: inactive

IN: I'd like to know its viability change, negative = cytotoxic. The compound in question is CCCCCCCCCCCCSC#N
OUT: inactive

IN: Entry under review: CCC[Si](OC)(OC)OC . Reported viability change, negative = cytotoxic?
OUT: inactive

IN: Any idea what its viability change, negative = cytotoxic is? The compound is CCCCCCCCCCCC(=O)OCC
OUT: inactive

IN: Name the recorded viability change, negative = cytotoxic for CC(C)CCCCCOC(=O)CS .
OUT: inactive

IN: Report viability change, negative = cytotoxic for CC(=O)OCC(=O)[C@@]1(O)CC[C@H]2[C@@H]3CCC4=CC(=O)C=C[C@]4(C)[C@@]3(F)[C@@H](O)C[C@@]21C please.
OUT: inactive

IN: Sample CCCCCCCCCCCCN1CCOCC1 — what was its viability change, negative = cytotoxic?
OUT: inactive

IN: Record request: viability change, negative = cytotoxic value, item CC(=O)Nc1cccc(N)c1
OUT: inactive

IN: Tell me the measured viability change, negative = cytotoxic of OCC(O)c1ccccc1 (stereo not given) , please.
OUT: inactive
